Entries and their pIC50
# system-tested: S-nitrosoglutathione reductase (GSNOR) (Homo sapiens)
# Construct: made in house; host or cells: E. coli
# protocol-details: GSNOR assay (inhibition of GSNOR activity, NADH absorbance at 340 nm)
# Assay type: biochemical
# study-conditions: GSNOR inhibitor activity, Tables 1-6; read-out: IC50 range
# Description: Various compounds were tested in vitro for their ability to inhibit GSNOR activity. GSNOR expression and purification is described in Biochemistry 2000, 39, 10720-10729. […] GSNOR assay: GSNO and enzyme/NADH Solutions are made up fresh each day. […] The cuvette is placed in the Cary 3E UV/Visible Spectrophotometer and the change in 340 nm absorbance/min at 25° C. is recorded for 3 minutes. […] IC50's for each compound are calculated using the standard curve analysis in the Enzyme Kinetics Module of SigmaPlot. […]
pIC50: −log10 of the molar value.

// solved cases for pIC50 follow
O=C(O)c1ccc(-c2nc3ccc(O)cc3cc2Cl)cc1 [Compound I-19]	> 7.00
Cc1cc(C(=O)O)ccc1-c1ncc2cc(O)ccc2n1 [II-4]	> 7.00
O=c1c(Oc2ccc(O)c([N+](=O)[O-])c2)c(C(F)(F)F)oc2cc(O)ccc12 [Compound V-17]	6.00 to 7.00
O=C(O)c1ccc(CCC(=O)c2ccc(O)c(F)c2F)cc1 [VI-29]	5.00 to 6.00

Can you look up the measured pIC50 of O=C(O)c1ccc(Oc2c(-c3ccc(Cl)cc3)oc3cc(O)ccc3c2=O)cc1 [Compound V-7] for me?
5.00 to 6.00

###

Entries and their IC50
# system-tested: S-nitrosoglutathione reductase (GSNOR) (Homo sapiens, UniProt P11766)
# Construct: made in house; host or cells: E. coli
# Sequence (P11766 whole entry): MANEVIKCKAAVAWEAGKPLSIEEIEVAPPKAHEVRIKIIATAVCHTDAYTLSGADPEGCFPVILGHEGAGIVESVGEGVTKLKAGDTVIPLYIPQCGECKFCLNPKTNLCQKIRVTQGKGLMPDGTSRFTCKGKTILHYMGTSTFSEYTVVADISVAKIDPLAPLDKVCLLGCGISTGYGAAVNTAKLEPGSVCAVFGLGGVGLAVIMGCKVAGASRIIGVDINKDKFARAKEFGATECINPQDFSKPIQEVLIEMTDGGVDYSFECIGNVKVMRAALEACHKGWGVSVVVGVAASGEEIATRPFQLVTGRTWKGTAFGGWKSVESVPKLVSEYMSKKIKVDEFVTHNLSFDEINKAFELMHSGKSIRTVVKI
# protocol-details: GSNOR assay (inhibition of GSNOR activity, NADH absorbance at 340 nm)
# Assay type: biochemical
# study-conditions: GSNOR inhibitor activity, Tables 1-6; read-out: IC50 range

// solved cases for IC50 follow
O=C(O)c1ccc(-c2ccc3c(F)c(O)ccc3n2)c(F)c1 [Compound I-56]	< 0.1 µM
O=C(O)c1ccc(-c2ccc3cc(O)ccc3n2)c(Cl)c1 [Compound I-8]	< 0.1 µM
COc1cc(-c2ccc3cc(O)ccc3c2)ccc1C(=O)O [III-34]	0.1 to 1 µM

Can you look up the measured IC50 of O=C(O)c1ccc(CC(=O)c2ccc(O)cc2O)c(F)c1 [VI-18] for me?
0.1 to 1 µM

###

# system-tested: S-nitrosoglutathione reductase (GSNOR) (Homo sapiens, UniProt P11766)
# Construct: made in house; host or cells: E. coli
# protocol-details: GSNOR assay (inhibition of GSNOR activity, NADH absorbance at 340 nm)
# Format: biochemical
# study-conditions: GSNOR inhibitor activity, Tables 1-6; read-out: IC50 range
property-name: IC50

// solved cases for IC50 follow
O=C(O)c1ccc(-c2ncc3cc(O)ccc3n2)cc1 [II-1]	< 100 nM
Oc1ccc2cc(-c3ccc(-c4nnn[nH]4)cc3)ccc2c1 [III-18]	< 100 nM
CS(=O)(=O)NC(=O)c1ccc(-c2c(C(F)(F)F)oc3cc(O)ccc3c2=O)cc1 [IV-32]	100 to 1000 nM
O=C(O)c1ccc(-c2cc3ccc(O)cc3cn2)c(F)c1 [II-24]	< 100 nM
CN(c1ccc(C(=O)O)cc1)c1c(C(F)(F)F)oc2cc(O)ccc2c1=O [Compound V-14]	1000 to 10000 nM

Can you look up the measured IC50 of COc1cc(C(=O)O)ccc1-c1ncc2cc(O)ccc2n1 [II-5] for me?
< 100 nM

Consider next the compound CC(C(=O)c1ccc(O)cc1O)c1ccc(C(=O)O)cc1 (stereo not shown) [VI-12] in the same way.
1000 to 10000 nM

Consider next the compound O=C(O)C1CCN(c2ccc3cc(O)ccc3n2)CC1 [Compound I-5] in the same way.
1000 to 10000 nM

Consider next the compound O=C(O)c1ccc(-c2ncc3cc(O)ccc3n2)c(F)c1 [II-6] in the same way.
< 100 nM

Consider next the compound O=C(O)c1ccc(CC(=O)c2ccc(O)c(F)c2F)c(F)c1 [VI-3] in the same way.
< 100 nM

Consider next the compound COc1cc(-c2ccc3cc(O)ccc3n2)ccc1C(=O)O [Compound I-59] in the same way.
100 to 1000 nM

Consider next the compound O=c1c2ccc(O)cc2oc(C(F)(F)F)c1[C@H]1CC[C@H](C(=O)O)CC1 [IV-25] in the same way.
< 100 nM

Consider next the compound O=C(O)c1ccc(CC(=O)c2ccc(O)cc2)cc1 [VI-11] in the same way.
100 to 1000 nM

Consider next the compound O=c1[nH]c(-c2ccc(-c3c(C(F)(F)F)oc4cc(O)ccc4c3=O)cc2)no1 [IV-31] in the same way.
< 100 nM

###

# system-tested: S-nitrosoglutathione reductase (GSNOR) (Homo sapiens)
# Construct: made in house; host or cells: E. coli
# protocol-details: GSNOR assay (inhibition of GSNOR activity, NADH absorbance at 340 nm)
# Assay type: biochemical
# study-conditions: GSNOR inhibitor activity, Tables 1-6; read-out: IC50 range
Entries and their IC50

// solved cases for IC50 follow
O=C(O)c1ccc(-c2ccc3cc(O)ccc3c2)c(Cl)c1	< 100 nM
O=C(O)C1CCN(c2nc3ccc(O)cc3cc2C(F)(F)F)CC1	< 100 nM
O=C(O)c1ccc(CC(=O)c2cc(F)c(O)c(F)c2)c(F)c1	100 to 1000 nM
CN(C)c1cc(-c2ccc(C(=O)O)cc2)nc2ccc(O)cc12	100 to 1000 nM

Can you look up the measured IC50 of `Cc1sc2cc(O)ccc2c(=O)c1-c1ccc(-c2nnn[nH]2)cc1` for me?
< 100 nM

Consider next the molecule `Oc1ccc2nc(-c3ccc(-c4nn[nH]n4)cc3)cc(Cl)c2c1` in the same way.
< 100 nM

Consider next the molecule `O=C(O)c1ccc(-c2nnc3cc(O)ccc3n2)c(F)c1` in the same way.
< 100 nM

Consider next the molecule `O=C(O)c1ccc(-c2c(C(F)(F)F)oc3cc(O)ccc3c2=O)s1` in the same way.
< 100 nM

Consider next the molecule `O=C(O)c1ccc(CSc2ccc(O)cc2)c(F)c1` in the same way.
100 to 1000 nM

Consider next the molecule `O=C(O)[C@H]1CC[C@H](c2nc3ccc(O)cc3cc2Cl)CC1` in the same way.
100 to 1000 nM

###

Entries and their pIC50
# system-tested: S-nitrosoglutathione reductase (GSNOR) (Homo sapiens)
# Construct: made in house; host or cells: E. coli
# protocol-details: GSNOR assay (inhibition of GSNOR activity, NADH absorbance at 340 nm)
# Format: biochemical
# study-conditions: Table 8; GSNOR inhibition, IC50 range class a/b/c; read-out: IC50
pIC50: −log10 of the molar value.

Cc1cc2cc(O)ccc2c(=O)n1[C@H]1CC[C@H](C(=O)O)CC1 [VIII-12]	6.00 to 7.00

Can you look up the measured pIC50 of O=c1c2ccc(O)cc2cc(C(F)(F)F)n1[C@H]1CC[C@H](C(=O)O)CC1 [VIII-15] for me?
> 7.00

Consider next the compound Cn1c(-c2ccc(C(=O)O)cc2)cc2ccc(O)cc2c1=O [VIII-11] in the same way.
6.00 to 7.00

###

# system-tested: S-nitrosoglutathione reductase (GSNOR) (Homo sapiens)
# Construct: made in house; host or cells: E. coli
# protocol-details: GSNOR assay (inhibition of GSNOR activity, NADH absorbance at 340 nm)
# Format: biochemical
# study-conditions: GSNOR inhibitor activity, Tables 1-6; read-out: IC50 range
property-name: IC50

// solved cases for IC50 follow
O=C(O)c1ccc(-c2ccc3cc(O)ccc3n2)s1	1 to 10 µM
O=C(O)C1CCN(c2ncc3cc(O)ccc3n2)CC1	1 to 10 µM
O=C(O)c1ccc(-c2ccc3c(F)c(O)ccc3n2)cc1	< 0.1 µM
CC(C)c1oc2cc(O)ccc2c(=O)c1Oc1ccc(C(=O)O)cc1	1 to 10 µM

Could you now look at the following compound, please?
Can you look up the measured IC50 of `O=C(O)c1ccc(-c2ccc3cc(O)ccc3n2)cc1Cl` for me?
1 to 10 µM

###

# system-tested: S-nitrosoglutathione reductase (GSNOR) (Homo sapiens)
# Construct: made in house; host or cells: E. coli
# protocol-details: GSNOR assay (inhibition of GSNOR activity, NADH absorbance at 340 nm)
# Type: biochemical
# study-conditions: GSNOR inhibitor activity, Tables 1-6; read-out: IC50 range
Entries and their IC50

// solved cases for IC50 follow
O=c1nc(-c2ccc(-c3ccc4cc(O)ccc4n3)cc2F)[nH]o1	< 100 nM
O=c1nc(-c2ccc(-c3ccc4cc(O)ccc4n3)c(F)c2)[nH]o1	< 100 nM
COc1cc(Oc2c(C(F)(F)F)oc3cc(O)ccc3c2=O)ccc1C(=O)O	1000 to 10000 nM
COc1c(-c2ccc(C(=O)O)cc2)ccc2cc(O)ccc12	< 100 nM
O=c1nc(-c2ccc(-c3ccc4cc(O)ccc4n3)cc2)o[nH]1	100 to 1000 nM
O=C(O)c1ccc(-c2ccc3cc(O)ccc3n2)cc1O	< 100 nM

Can you look up the measured IC50 of `O=C(O)c1ccc(NCc2ccc(O)cc2F)c(F)c1` for me?
1000 to 10000 nM

Consider next the compound `O=C(O)c1ccc(-c2ccc3cc(O)ccc3c2)nn1` in the same way.
1000 to 10000 nM

Consider next the compound `N#Cc1cc2cc(O)ccc2nc1-c1ccc(C(=O)O)cc1` in the same way.
< 100 nM
